tested on: Pseudomonas aeruginosa; assay: Antibacterial activity against Pseudomonas aeruginosa PAO1 assessed as growth inhibition at 10 mg/ml after 16 to 20 hrs; assay type: functional, organism-based
Activity calls are given as the source filed them. No cut-off for these calls is given here.
Possible outcomes: active, inactive

- mol: "O=C1Nc2ccc(Cl)cc2C(c2cccc(O)c2)=N[C@H]1O"
  assigned-category: "active"
- mol: "Cc1oc(C(=O)O)cc1COc1ccc2c3c(c(=O)oc2c1C)CCC3"
  assigned-category: "inactive"
- mol: "Cc1c(OCC(=O)O)ccc2c(-c3ccccc3)cc(=O)oc12"
  assigned-category: "active"
- mol: "O=C(O)CCCNC[C@@H](O)Cn1c2ccccc2c2ccccc21"
  assigned-category: "inactive"
- mol: "CCc1cc(=O)oc2c3c(c(C)c(OCC(=O)O)c12)OC(C)(C)C=C3"
  assigned-category: "active"
- mol: "O=C(O)c1cccc(NC(=O)[C@H]2CCCC[C@@H]2C(=O)O)c1"
  assigned-category: "active"
- mol: "CSCC[C@@H](NCC[C@H](O)c1ccccc1)C(=O)O"
  assigned-category: "active"
- mol: "Cc1ncc(CO)c(CNc2ccc(Oc3ccccc3)cc2)c1O"
  assigned-category: "active"
- mol: "C[C@@H](NC[C@@H](O)Cn1c2ccccc2c2ccccc21)C(=O)O"
  assigned-category: "inactive"
- mol: "O=C(O)c1ccc([C@H](O)[C@@H](O)c2ccccc2)cc1"
  assigned-category: "inactive"
- mol: "CCCCc1cc(=O)oc2c(C)c(O[C@H](C)C(=O)O)ccc12"
  assigned-category: "active"

---

assay: Cytotoxicity against human CL1 cells expressing hTERT assessed as cell viability at 100 ug/ml after 24 hrs by trypan blue exclusion assay; assay type: cell-based

- mol: "Cc1ncc(CO)c(CNc2ccc(Oc3ccccc3)cc2)c1O"
  Activity: "Toxic"
- mol: "O=C(O)c1ccc([C@H](O)[C@@H](O)c2ccccc2)cc1"
  Activity: "Toxic"
- mol: "O=C(O)CCCNC[C@@H](O)Cn1c2ccccc2c2ccccc21"
  Activity: "Non-toxic"
- mol: "Cc1c(OCC(=O)O)ccc2c(-c3ccccc3)cc(=O)oc12"
  Activity: "Non-toxic"
- mol: "CC1(C)S[C@@H]2[C@H](NC(=O)[C@H](N)c3ccccc3)C(=O)N2[C@H]1C(=O)O"
  Activity: "Non-toxic"

---

system: Escherichia coli; assay: Antibacterial activity against Escherichia coli 1655 assessed as growth inhibition at 10 mg/ml after 16 to 20 hrs; type: functional, organism-based
Activity calls are given as the source filed them. The calls are words filed in the database; no cut-off is given here.
Possible outcomes: active, inactive

- compound: "Cc1c(OCC(=O)O)ccc2c(-c3ccccc3)cc(=O)oc12"
  assigned-category: "active"
- compound: "CSCC[C@@H](NCC[C@H](O)c1ccccc1)C(=O)O"
  assigned-category: "inactive"
- compound: "Cc1oc(C(=O)O)cc1COc1ccc2c3c(c(=O)oc2c1C)CCC3"
  assigned-category: "inactive"
- compound: "CCN(CCc1ccccc1)C(=O)CSc1ncccc1C(=O)O"
  assigned-category: "active"
- compound: "O=C(O)c1ccc([C@H](O)[C@@H](O)c2ccccc2)cc1"
  assigned-category: "active"
- compound: "C[C@@H](NC[C@@H](O)Cn1c2ccccc2c2ccccc21)C(=O)O"
  assigned-category: "inactive"
- compound: "O=C1Nc2ccc(Cl)cc2C(c2cccc(O)c2)=N[C@H]1O"
  assigned-category: "active"
- compound: "O=C(O)C[C@H](NCc1ccco1)C(=O)Cc1ccc(Cl)cc1"
  assigned-category: "inactive"
- compound: "Cc1ncc(CO)c(CNc2ccc(Oc3ccccc3)cc2)c1O"
  assigned-category: "active"
- compound: "CC(=O)C1C(O)C(=O)N(c2ccc(C(=O)O)cc2)[C@H]1c1ccccc1 (some centres not stated)"
  assigned-category: "active"
- compound: "CC(=O)C1=C(O)C(=O)N(CCC(=O)O)[C@@H]1c1ccc(C(C)C)cc1"
  assigned-category: "active"
- compound: "CCc1cc(=O)oc2c3c(c(C)c(OCC(=O)O)c12)OC(C)(C)C=C3"
  assigned-category: "active"

---

system: Pseudomonas aeruginosa; test: Antibacterial activity against Pseudomonas aeruginosa PAO1 assessed as growth inhibition at 10 mg/ml after 16 to 20 hrs; format: functional, organism-based
Calls of active or inactive are those of the source. The calls are words filed in the database; no cut-off is given here.

- compound: "CC(=O)C1=C(O)C(=O)N(CCC(=O)O)[C@@H]1c1ccc(C(C)C)cc1"
  Activity: "Active"
- compound: "CC(=O)C1C(O)C(=O)N(c2ccc(C(=O)O)cc2)[C@H]1c1ccccc1 (stereo partly drawn)"
  Activity: "Active"
- compound: "O=C(O)C[C@H](c1ccncc1)c1c[nH]c2ccccc12"
  Activity: "Active"

---

test system: Escherichia coli; assay: Antibacterial activity against clinical isolate of Escherichia coli assessed as growth inhibition at 10 mg/ml after 16 to 20 hrs; assay type: functional, organism-based
The source made the active and inactive calls. The calls are words filed in the database; no cut-off is given here.
Possible outcomes: TRUE (active), FALSE (inactive)

- molecule: "O=C(O)c1cccc(NC(=O)[C@H]2CCCC[C@@H]2C(=O)O)c1"
  assigned-category: "FALSE"
- molecule: "CCc1cc(=O)oc2c3c(c(C)c(OCC(=O)O)c12)OC(C)(C)C=C3"
  assigned-category: "FALSE"
- molecule: "CC(=O)C1C(O)C(=O)N(c2ccc(C(=O)O)cc2)[C@H]1c1ccccc1 (stereo not given in full)"
  assigned-category: "TRUE"
- molecule: "CSCC[C@@H](NCC[C@H](O)c1ccccc1)C(=O)O"
  assigned-category: "FALSE"
- molecule: "O=C(O)C[C@H](c1ccncc1)c1c[nH]c2ccccc12"
  assigned-category: "TRUE"

---

system: Escherichia coli; experiment: Antibacterial activity against clinical isolate of Escherichia coli assessed as growth inhibition at 10 mg/ml after 16 to 20 hrs; format: functional, organism-based
Activity calls are given as the source filed them. No cut-off for these calls is given here.
Possible outcomes: active, inactive

- mol: "CC(=O)C1=C(O)C(=O)N(CCC(=O)O)[C@@H]1c1ccc(C(C)C)cc1"
  assigned-category: "active"
- mol: "Cc1c(OCC(=O)O)ccc2c(-c3ccccc3)cc(=O)oc12"
  assigned-category: "active"
- mol: "C[C@@H](NC[C@@H](O)Cn1c2ccccc2c2ccccc21)C(=O)O"
  assigned-category: "inactive"
- mol: "CN(C)c1ccc(/C=N/Nc2ccc(S(=O)(=O)O)cc2)cc1"
  assigned-category: "inactive"
- mol: "O=C(O)C[C@H](NCc1ccco1)C(=O)Cc1ccc(Cl)cc1"
  assigned-category: "inactive"
- mol: "Cc1oc(C(=O)O)cc1COc1ccc2c3c(c(=O)oc2c1C)CCC3"
  assigned-category: "inactive"
